TEST: Cytotoxicity against human MRC5 cells infected with […] inhibition of cell growth
Type: toxicity, cell-based

COMPOUND	COMPARISON_SYMBOL	CC50, µM
CC(C)C[C@H](NC(=O)[C@H](Cc1ccc(F)cc1)NC(=O)OCc1ccccc1)C(=O)NC(C=O)C[C@@H]1CCNC1=O (mixture of isomers)	>	50.1
CC(C)C[C@H](NC(=O)[C@H](Cc1ccc(F)cc1)NC(=O)OCc1ccccc1)C(=O)NC(C=O)CC(F)(F)F (mixture of isomers)	=	1.26
CC(C)C[C@H](NC(=O)[C@H](Cc1ccc(F)cc1)NC(=O)OCc1ccccc1)C(=O)NC(C=O)CC1CCCCO1 (mixture of isomers)	>	50.1
CC(C)C[C@H](NC(=O)[C@H](Cc1ccc(F)cc1)NC(=O)OCc1ccccc1)C(=O)NC(C=O)Cc1cncs1 (mixture of isomers)	=	2
CC(C)C[C@H](NC(=O)[C@H](Cc1ccc(F)cc1)NC(=O)OCc1ccccc1)C(=O)NC(C=O)CC1CCCC1 (mixture of isomers)	=	10

----------
TARGET_ENTITY: Replicase polyprotein 1ab (Severe acute respiratory syndrome coronavirus 2)

SMILES_RECORD	Ki [nM]
CC(C)C[C@H](NC(=O)[C@H](Cc1ccc(F)cc1)NC(=O)OCc1ccccc1)C(=O)N[C@@H](C[C@@H]1CCNC1=O)C(=O)C(=O)NC(C)C	5.01

----------
TARGET_ENTITY: Replicase polyprotein 1ab (Severe acute respiratory syndrome coronavirus 2) (UniProt P0DTD1)
TEST: Binding affinity to SARS-CoV-2 3CL protease assessed as biphasic dissociation rate by measuring half life by jump dilution assay
T1/2 values, listed per item

MOLECULE	T1/2, h
CC(C)C[C@H](NC(=O)[C@H](Cc1ccc(F)cc1)NC(=O)OCc1ccccc1)C(=O)N[C@H](C=O)CC[S+](C)[O-] (mixture of isomers)	11
CC(C)C[C@H](NC(=O)[C@H](Cc1ccc(F)cc1)NC(=O)OCc1ccccc1)C(=O)NC(C=O)C[C@@H]1CCNC1=O (mixture of isomers)	14
CC(C)C[C@H](NC(=O)[C@H](Cc1ccc(F)cc1)NC(=O)OCc1ccccc1)C(=O)NC(C=O)CC1CCCO1 (mixture of isomers)	11
CC(C)C[C@H](NC(=O)[C@H](Cc1ccc(F)cc1)NC(=O)OCc1ccccc1)C(=O)N[C@H](/C=C1\CCOC1=O)C[C@@H]1CCCO1	11
CC(C)C[C@H](NC(=O)[C@H](Cc1ccc(F)cc1)NC(=O)OCc1ccccc1)C(=O)NC(C=O)Cc1ccccc1F (mixture of isomers)	6.9
CC(C)C[C@H](NC(=O)[C@H](Cc1ccc(F)cc1)NC(=O)OCc1ccccc1)C(=O)N[C@H](/C=C1\CCOC1=O)C[C@@H]1CCNC1=O	7.8

----------
TARGET_ENTITY: Replicase polyprotein 1ab (Severe acute respiratory syndrome coronavirus 2)
TEST: Binding affinity to SARS-CoV-2 3CL protease assessed as monophasic dissociation rate by measuring half life by jump dilution assay

COMPOUND	T1/2
CC(C)C[C@H](NC(=O)[C@H](Cc1ccc(F)cc1)NC(=O)OCc1ccccc1)C(=O)NC(C=O)Cc1c[nH]cn1 (mixture of isomers)	< 12 min
CC(C)C[C@H](NC(=O)[C@H](Cc1ccc(F)cc1)NC(=O)OCc1ccccc1)C(=O)NC(C=O)CC1CCCCO1 (mixture of isomers)	18 min
CC(C)C[C@H](NC(=O)[C@H](Cc1ccc(F)cc1)NC(=O)OCc1ccccc1)C(=O)N[C@H](/C=C1\CCOC1=O)C[C@H]1CCCO1	12 min

----------
Papp values, listed per item
TEST: Permeability of compound in MDCK cells
Assay type: ADME, cell-based, Canis lupus familiaris
EXPERIMENTAL_SETUP: dog, read-out: permeability

COMPOUND	Papp, ×10⁻⁶ cm/s
CC(C)C[C@H](NC(=O)[C@H](Cc1ccc(F)cc1)NC(=O)OCc1ccccc1)C(=O)NC(C=O)Cc1ccccc1F (mixture of isomers)	5.27
CC(C)C[C@H](NC(=O)[C@H](Cc1ccc(F)cc1)NC(=O)OCc1ccccc1)C(=O)NC(C=O)C[C@@H]1CCNC1=O (mixture of isomers)	1.62
CC(C)C[C@H](NC(=O)[C@H](Cc1ccc(F)cc1)NC(=O)OCc1ccccc1)C(=O)NC(C=O)CC1CCCO1 (mixture of isomers)	9.56

----------
TARGET_ENTITY: Replicase polyprotein 1ab (Severe acute respiratory syndrome coronavirus 2)
TEST: Binding affinity to SARS-CoV-2 3CL protease assessed as monophasic dissociation rate by measuring half life by jump dilution assay
Where a SMILES comes first, the peptide text is derived from it. [ ]: non-standard residue; d: D form. The star is where a group is joined. Phe(4-F) = N[C@@H](Cc1ccc(F)cc1)C(=O)O; Cbz = O=C(OCc1ccccc1)*
MEASURE: T1/2

COMPOUND	EXPERIMENTAL_RESULT
CC(C)C[C@H](NC(=O)[C@H](Cc1ccc(F)cc1)NC(=O)OCc1ccccc1)C(=O)NC(C=O)CC1CCCC1 (mixture of isomers)	< 12 min
CC(C)C[C@H](NC(=O)[C@H](Cc1ccc(F)cc1)NC(=O)OCc1ccccc1)C(=O)NC(C=O)Cc1cccc(F)c1 (mixture of isomers)	< 12 min
CSCC[C@@H](C=O)NC(=O)[C@H](CC(C)C)NC(=O)[C@H](Cc1ccc(F)cc1)NC(=O)OCc1ccccc1 (Cbz-[Phe(4-F)]-Leu-Met-aldehyde)	< 12 min

----------
TARGET_ENTITY: Replicase polyprotein 1ab (Severe acute respiratory syndrome coronavirus 2, UniProt P0DTD1)
IC50 values, listed per item
MEASURE: IC50 (nM)

MOLECULE	MEASURE	UNIT_OF_MEASUREMENT	EXPERIMENTAL_RESULT
CC(C)C[C@H](NC(=O)[C@H](Cc1ccc(F)cc1)NC(=O)OCc1ccccc1)C(=O)N[C@@H](C[C@@H]1CCNC1=O)C(=O)C(=O)NC(C)C	IC50	nM	5.01
CC(C)C[C@H](NC(=O)[C@H](Cc1ccc(F)cc1)NC(=O)OCc1ccccc1)C(=O)NC(C=O)C[C@@H]1CCNC1=O (mixture of isomers)	IC50	nM	0.398
CC(C)C[C@H](NC(=O)[C@H](Cc1ccc(F)cc1)NC(=O)OCc1ccccc1)C(=O)NC(C=O)Cc1cccc(F)c1 (mixture of isomers)	IC50	nM	631
